# Assay target: MuLV envelope protein (control pseudovirus) (MuLV)
# Protocol description: cell-based or functional assay
Readout: IC50 (neutralization, TZM-bl pseudovirus assay)

Query: // fetch IC50 (neutralization, TZM-bl pseudovirus assay) given entry 1503_H05 (PG16) (TCN-119) (antibody, V domains shown) VH: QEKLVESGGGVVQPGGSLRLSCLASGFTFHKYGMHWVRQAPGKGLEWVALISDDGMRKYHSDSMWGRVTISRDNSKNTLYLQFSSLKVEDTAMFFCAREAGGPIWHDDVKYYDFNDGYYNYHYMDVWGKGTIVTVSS VL: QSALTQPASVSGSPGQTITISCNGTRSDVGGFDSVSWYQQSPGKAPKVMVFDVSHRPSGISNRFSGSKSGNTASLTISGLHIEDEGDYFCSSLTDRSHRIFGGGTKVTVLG
Response: > 25 µg/mL

Value source: patent US20250320281A1
